Value source: patent US12186423B2

Listed below: % Viability values for each entry.
tested on: B16-F1 melanocytes; assay type: cell-based; details: mouse

{"columns": ["molecule", "display.unit", "% Viability"],
 "data": [
  ["NC(=O)c1cccnc1 [Niacinamide (B3), Niacinamide]", "%", 100],
  ["COc1cc(/C=C/C(=O)O)ccc1O", "%", 98.4],
  ["O=c1cc(CO)occ1O", "%", 98.1]
]}
